# Tested on: SK-MEL-28 melanoma
# assay: NCI-60 one-dose screen, 48 h (100 = growth as untreated, 0 = no growth, -100 = all killed)
# stated.conditions: 10 µM unless noted
Compounds without any hit were thinned out: in the full panel of roughly 83,000, 20% have a hit.
The reader will find reported growth values listed item by item below.
Quick reminder: number only, in %, skip the unit.

Consider the reported growth for these compounds:
compound	result.units	growth
CC(=O)Oc1c2c(nc3c1c1ccccc1n3Cc1ccccc1)-c1ccccc1C2	%	100
COc1ccc2[nH]c(=O)c(/C=C/C(=O)/C=C/c3ccc(O)c(OC)c3)cc2c1	%	16.8
C/C(=N\NC(=O)c1ccncc1)c1ccc(N)cc1	%	106
C=C1C(=O)O[C@H]2[C@H]1CC/C(COC(=O)CCCCCCCCC(=O)OC/C1=C/CC[C@@]3(C)O[C@H]3[C@H]3OC(=O)C(=C)[C@@H]3CC1)=C\CC[C@@]1(C)O[C@@H]21	%	-12.8
c1ccc(-c2n(Cc3ccc4ccccc4n3)cc[n+]2Cc2ccc3ccccc3c2)cc1	%	0.22
CCCCC1=c2c([nH]c3ccc(OC)cc23)=NC2C=CC=NC12 (stereo unspecified)	%	112
Cc1cc(C)c2nc(Nc3nc(C)c(C)c(=O)[nH]3)nc(C)c2c1	%	3.48
Cc1cccc(C)c1Nc1nnc(-c2ccc(F)cc2)o1	%	100
CC(=O)c1cnc(-c2ccccc2)nc1CBr	%	104
CCOC(=O)c1ccc(Nc2ncnc3ccc(NC(=O)c4ccccc4)cc23)cc1	%	89.6

*Q* Lab request: please report growth under test system SK-MEL-28 melanoma for COC(=O)c1cc2c3c(cc(O)c2[nH]1)N(C(=O)C1Cc2cc(OC)c(OC)c(OC)c2N1)CC3CCl (stereo unspecified)
*A* -6.29

*Q* Lab request: please report growth under test system SK-MEL-28 melanoma for O=C1CC23OC4ON=C(Br)C4C2C(O)c2ccccc2N13 (stereo unspecified)
*A* 114

*Q* Lab request: please report growth under test system SK-MEL-28 melanoma for `CC(=O)[C@@H]1CC[C@]2(C(=O)O)CC[C@]3(C)[C@H](CC[C@@H]4[C@@]5(C)Cc6c([nH]c7ccccc67)C(C)(C)[C@@H]5CC[C@]43C)[C@@H]12`
*A* 78.5

*Q* Lab request: please report growth under test system SK-MEL-28 melanoma for `COC(=O)c1ccc2c(c1)n(Cc1ccc3ccccc3c1)c[n+]2Cc1ccc2ccccc2c1`
*A* 21.6

*Q* Lab request: please report growth under test system SK-MEL-28 melanoma for `Cc1cc(C)c(NC(=O)c2sc3nc4c(cc3c2N)CCCCCC4)c(C)c1`
*A* 75.2

*Q* Lab request: please report growth under test system SK-MEL-28 melanoma for COc1c(O)cc2oc3cc(O[C@@H]4OC(C)[C@@H](O)[C@H](O)C4O)c(CC=C(C)C)c(O)c3c(=O)c2c1CC=C(C)C (stereo partly specified)
*A* 105
